# assay.info: CelltiterGlo viability cell assay
# Assay type: cell-based
# particulars: human, SKMM2 multiple myeloma cells, SKMM2, 3 day, 1 uM; read-out: viability Replicate 2
quantity.name: viability at 3 day, 1 µM (%)

[[record]]
smiles_string = "COc1cc(OC)cc(-c2noc(N3CCN(C)C4(CCN(c5ccnc(C)c5)CC4)C3)n2)c1"
quantity_name = "viability at 3 day, 1 µM"
unit_string = "%"
recorded_number = 99.6


###

# assay.info: CelltiterGlo viability cell assay
# Format: cell-based
# particulars: human, RPMI-8226 cells (multiple myeloma line), 8226, 6 day, 0.1 uM; read-out: viability Average
quantity.name: viability at 6 day, 0.1 µM

[[record]]
compound = "COc1cc(OC)cc(-c2noc(N3CCN(C)C4(CCN(c5ccnc(C)c5)CC4)C3)n2)c1 [MRK-740]"
result = "100%"

